The origin of these recorded values is ChEMBL document CHEMBL3734728.

EXPERIMENT_NOTES: Lipophilicity, logP of the compound
Assay type: physicochemical
EXPERIMENTAL_CONDITIONS: octanol/water
Entries and their logP
MEASURED_ATTRIBUTE: logP

> print(dat)
                           structure.smiles  measured.attribute  reported.result
1  CCOC(=O)c1[nH]c2cc(Cl)ccc2c1-c1c(-c2ccc(F)cc2)c2ccccc2n1Cc1ccc(Cl)cc1                logP             7.98
2  CCOC(=O)c1[nH]c2cc(Cl)ccc2c1-c1c(-c2ccccc2)c2ccccc2n1Cc1ccc(Cl)cc1                logP             7.82
3  CCOC(=O)c1[nH]c2cc(Cl)ccc2c1-c1c(-c2ccc(Cl)cc2)c2ccccc2n1Cc1ccc(Cl)cc1                logP             8.38
4  O=C(O)c1[nH]c2cc(Cl)ccc2c1-c1c(-c2ccccc2)c2ccccc2n1Cc1ccc(Cl)cc1                logP             7.22
5  Clc1ccc(Cn2c(-c3c[nH]c4cc(Cl)ccc34)c(-c3ccccc3)c3ccccc32)cc1                logP             7.61
6  O=C(O)c1[nH]c2cc(Cl)ccc2c1-c1c(-c2ccc(F)cc2)c2ccccc2n1Cc1ccc(Cl)cc1                logP             7.38
7  O=C(NCCN1CCOCC1)c1[nH]c2cc(Cl)ccc2c1-c1c(-c2ccccc2)c2ccccc2n1Cc1ccc(Cl)cc1                logP              6.4

====

TESTED_SYSTEM: Protein Mdm4 (Homo sapiens, UniProt O15151)
Sequence (O15151 whole entry): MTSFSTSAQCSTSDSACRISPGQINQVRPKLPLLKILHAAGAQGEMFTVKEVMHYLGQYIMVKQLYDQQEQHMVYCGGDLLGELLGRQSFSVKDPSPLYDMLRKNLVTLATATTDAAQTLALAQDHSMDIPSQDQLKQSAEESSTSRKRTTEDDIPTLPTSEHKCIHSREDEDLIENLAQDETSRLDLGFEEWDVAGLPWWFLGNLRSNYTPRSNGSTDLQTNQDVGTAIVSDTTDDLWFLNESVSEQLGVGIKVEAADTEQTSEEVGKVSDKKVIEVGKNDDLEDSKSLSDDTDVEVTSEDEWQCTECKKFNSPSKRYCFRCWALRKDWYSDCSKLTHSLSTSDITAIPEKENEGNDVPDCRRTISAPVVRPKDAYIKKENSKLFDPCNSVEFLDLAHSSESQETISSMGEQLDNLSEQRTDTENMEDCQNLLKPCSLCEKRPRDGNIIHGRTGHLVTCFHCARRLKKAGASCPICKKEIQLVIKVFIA
pKi: −log10 of the molar value.
MEASURED_ATTRIBUTE: pKi

> print(dat)
                           structure.smiles  measured.attribute  reported.result
1  CCOC(=O)c1[nH]c2cc(Cl)ccc2c1-c1c(-c2ccc(Cl)cc2)c2ccccc2n1Cc1ccc(Cl)cc1                 pKi           < 4.22

====

TESTED_SYSTEM: E3 ubiquitin-protein ligase Mdm2 (Homo sapiens, UniProt Q00987)
Sequence (Q00987 whole entry): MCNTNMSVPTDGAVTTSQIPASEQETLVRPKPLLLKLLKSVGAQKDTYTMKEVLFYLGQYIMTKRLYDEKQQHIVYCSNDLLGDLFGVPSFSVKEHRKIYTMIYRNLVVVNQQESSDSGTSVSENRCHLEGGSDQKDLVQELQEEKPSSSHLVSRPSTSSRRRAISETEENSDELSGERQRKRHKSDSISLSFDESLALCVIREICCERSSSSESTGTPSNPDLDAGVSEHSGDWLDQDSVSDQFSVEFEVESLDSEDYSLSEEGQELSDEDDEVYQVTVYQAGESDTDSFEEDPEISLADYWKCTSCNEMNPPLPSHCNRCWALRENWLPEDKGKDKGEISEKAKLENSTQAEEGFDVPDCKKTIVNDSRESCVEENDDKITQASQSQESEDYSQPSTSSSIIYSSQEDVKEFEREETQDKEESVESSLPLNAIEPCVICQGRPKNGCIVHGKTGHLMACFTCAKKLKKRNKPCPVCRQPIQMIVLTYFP
pKi: −log10 of the molar value.
MEASURED_ATTRIBUTE: pKi

> print(dat)
                           structure.smiles  measured.attribute  reported.result
1  CCOC(=O)c1[nH]c2cc(Cl)ccc2c1-c1c(-c2ccc(Cl)cc2)c2ccccc2n1Cc1ccc(Cl)cc1                 pKi           < 4.66
